Molecular target: IRAK4 kinase (Homo sapiens, UniProt Q9NWZ3)
Construct: purchased Carna 09-145
Sequence (Q9NWZ3 1-460): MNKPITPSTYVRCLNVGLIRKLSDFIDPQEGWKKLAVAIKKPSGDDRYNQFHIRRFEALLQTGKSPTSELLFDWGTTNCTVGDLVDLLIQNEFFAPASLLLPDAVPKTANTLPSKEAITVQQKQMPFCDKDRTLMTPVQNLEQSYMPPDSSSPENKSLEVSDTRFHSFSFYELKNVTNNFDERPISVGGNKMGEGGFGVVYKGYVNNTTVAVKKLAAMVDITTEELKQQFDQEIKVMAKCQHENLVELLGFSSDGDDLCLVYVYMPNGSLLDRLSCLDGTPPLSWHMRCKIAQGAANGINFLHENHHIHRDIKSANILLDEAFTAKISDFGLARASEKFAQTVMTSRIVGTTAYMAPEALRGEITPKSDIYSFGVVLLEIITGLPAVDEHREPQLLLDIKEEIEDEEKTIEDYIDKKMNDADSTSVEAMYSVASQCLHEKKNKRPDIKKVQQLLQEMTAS
Assay: Compound inhibition of IRAK4 kinase activity (fluorescence microfluidic mobility shift assay)
Assay type: biochemical
Conditions: Table 2; 10 μM ATP, 6 nM IRAK4 kinase
pIC50: −log10 of the molar value.
PROPERTY_LABEL: pIC50

Give me measured pIC50, please, for this compound: COc1cc2c(cc1NC(=O)c1cccc(C(F)(F)F)n1)CN(CCC(C)(C)C(=O)N1CCC3(CC1)CCN(c1ncc(C(=O)N[C@H](C(=O)N4C[C@H](O)C[C@H]4C(=O)N[C@@H](C)c4ccc(-c5scnc5C)cc4)C(C)(C)C)cn1)CC3)C2=O [III-32]
6.00 to 7.00

Give me measured pIC50, please, for this compound: COc1cc2nn(CCN3CCN(CC(=O)N4CCC5(CCC(C(=O)N[C@H](C(=O)N6C[C@H](O)C[C@H]6C(=O)N[C@@H](C)c6ccc(-c7scnc7C)cc6)C(C)(C)C)CC5)CC4)CC3)cc2cc1NC(=O)c1cccc(C(F)(F)F)n1 [III-29]
> 7.00

Give me measured pIC50, please, for this compound: COc1cc2nn(CCN3CC4CCC(C3)N4CC(=O)N3CCC4(CC3)CCN(c3cccc5c3C(=O)N(C3CCC(=O)NC3=O)C5=O)CC4)cc2cc1NC(=O)c1cccc(C(F)(F)F)n1 (centres unmarked) [III-54]
> 7.00

Give me measured pIC50, please, for this compound: COc1cc2c(cc1NC(=O)c1cccc(C(F)(F)F)n1)CN(CCC(C)(C)C(=O)NC1CCN(c3cccc4c3C(=O)N(C3CCC(=O)NC3=O)C4=O)CC1)C2=O (centres unmarked) [III-41]
> 7.00

Give me measured pIC50, please, for this compound: COc1cc2c(cc1NC(=O)c1cccc(C(F)(F)F)n1)CN(CCC(C)(C)C(=O)N1CCC3(CC1)CCN(c1ncc(Nc4cccc5c4C(=O)N(C4CCC(=O)NC4=O)C5=O)cn1)CC3)C2=O (centres unmarked) [III-33]
6.00 to 7.00

Reference source for all entries: patent US12281098B2
